Value source: PubChem BioAssay (NCI)

growth values by entry
Tested on: ACHN renal
Assay: NCI-60 one-dose screen, 48 h (100 = growth as untreated, 0 = no growth, -100 = all killed)
Details: 10 µM
The panel holds about 83,000 compounds, 20% with a hit somewhere; the sample as a whole holds those more often.
QUANTITY KIND: growth (%)

INSERT INTO assay_data (structure, value_measured) VALUES
  ('O=C1Nc2cc(-c3ccc(NC(=O)c4cccc([N+](=O)[O-])c4)cc3)ccc2/C1=C/c1ccc[nH]1', 59.6),
  ('CCCCCCCCCCCCCCCCCCCC(=O)NCCc1c[nH]c2ccc(OC(=O)CCCC(=O)OCCOOCCOOCCOOCCOOCCOOCCOOCCOOCCOOCCOOCCOOCCOOCCOC)cc12', 59.9),
  ('Cc1ccc(C(=O)Nc2ccc(-n3c(C)nc4c(cnn4-c4ccccc4)c3=O)cc2)cc1', 61.8),
  ('CCOC(=O)c1c(CSc2ccccc2)n(C)c2cc(CN(C)C)c(O)c(CN(C)C)c12', 59),
  ('O=c1cc(-c2ccccc2)oc2cc(OCCCCNCc3ccccc3)cc(O)c12', 59.9);
